- ASSAY_METHOD_TEXT: Solubility of compound II in solvents
- Format: physicochemical
- PROTOCOL_CONDITIONS: organic solvent or mixture; in IPA
TEST_READOUT: solubility

Read the entry CCC(=O)[N-]S(=O)(=O)c1ccc(NC(=O)Cc2ccc(Br)c(Oc3cc(Cl)cc(C#N)c3)c2F)c(Cl)c1.[Na+] [II] and write its reported solubility.
~80 µg/mL
